Sourced from paper PMC10287566

- Procedure summary: Plasma pharmacokinetics/toxicokinetics in dogs (oral and i.v.)
- Assay type: in vivo
- Measurement setup: both sexes, Beagle, dog, dogs po 9 mg/kg single, 28-day tox study
Value type: Tmax (h)

COc1ccc(CO[C@H]2CC[C@@]3(C)C(=CC[C@H]4[C@@H]5CC[C@H](C(C)=O)[C@@]5(C)CC[C@@H]43)C2)cc1 6

----------
- Procedure summary: Plasma pharmacokinetics/toxicokinetics in dogs (oral and i.v.)
- Type: in vivo
- Measurement setup: both sexes, Beagle, dog, iv, 0.7 mg/kg, dogs i.v. 0.7 mg/kg
Value type: Cmax (ng/mL)

COc1ccc(CO[C@H]2CC[C@@]3(C)C(=CC[C@H]4[C@@H]5CC[C@H](C(C)=O)[C@@]5(C)CC[C@@H]43)C2)cc1 505

----------
- Procedure summary: Plasma and brain pharmacokinetics of oral AEF0117 in mice
- Type: in vivo
- Measurement setup: CD-1 Swiss (mice); Sprague Dawley (rats), mouse, brain/plasma, po, mice and rats, oral, corn oil; read-out: brain/plasma concentration AUC ratio
Value type: Kp

COc1ccc(CO[C@H]2CC[C@@]3(C)C(=CC[C@H]4[C@@H]5CC[C@H](C(C)=O)[C@@]5(C)CC[C@@H]43)C2)cc1 > 4

----------
- Procedure summary: Plasma pharmacokinetics/toxicokinetics in dogs (oral and i.v.)
- Format: in vivo
- Measurement setup: both sexes, Beagle, dog, dogs po 0.7 mg/kg single

Molecule	Tmax [h]
COc1ccc(CO[C@H]2CC[C@@]3(C)C(=CC[C@H]4[C@@H]5CC[C@H](C(C)=O)[C@@]5(C)CC[C@@H]43)C2)cc1 [AEF0117, 3β-(4-methoxybenzyloxy)pregn-5-en-20-one]	2.67

----------
- Procedure summary: Plasma and brain pharmacokinetics/toxicokinetics in rats
- Assay type: in vivo
- Measurement setup: both sexes, Sprague Dawley SPF, rat, plasma, po, 65 mg/kg, rats po 65 mg/kg single, 91-day tox study
Value type: AUC(0-t) (ng·h/mL)

COc1ccc(CO[C@H]2CC[C@@]3(C)C(=CC[C@H]4[C@@H]5CC[C@H](C(C)=O)[C@@]5(C)CC[C@@H]43)C2)cc1 18200

----------
- Procedure summary: Plasma and brain pharmacokinetics of oral AEF0117 in mice
- Format: in vivo
- Measurement setup: CD-1 Swiss (mice); Sprague Dawley (rats), mouse, brain, oral; mice and rats; read-out: tmax in the brain
Value type: Tmax

Compound	Meas value
COc1ccc(CO[C@H]2CC[C@@]3(C)C(=CC[C@H]4[C@@H]5CC[C@H](C(C)=O)[C@@]5(C)CC[C@@H]43)C2)cc1 [AEF0117, 3β-(4-methoxybenzyloxy)pregn-5-en-20-one]	7 h

----------
- Procedure summary: Plasma pharmacokinetics/toxicokinetics in dogs (oral and i.v.)
- Format: in vivo
- Measurement setup: both sexes, Beagle, dog, po, 9 mg/kg, dogs po 9 mg/kg single, 28-day tox study
Value type: AUC(0-t) (ng·h/mL)

COc1ccc(CO[C@H]2CC[C@@]3(C)C(=CC[C@H]4[C@@H]5CC[C@H](C(C)=O)[C@@]5(C)CC[C@@H]43)C2)cc1 18500

----------
- Procedure summary: Plasma pharmacokinetics/toxicokinetics in dogs (oral and i.v.)
- Format: in vivo
- Measurement setup: both sexes, Beagle, dog, po, 0.7 mg/kg, dogs po 0.7 mg/kg single
Value type: AUC(0-t) (µg·h/mL)

COc1ccc(CO[C@H]2CC[C@@]3(C)C(=CC[C@H]4[C@@H]5CC[C@H](C(C)=O)[C@@]5(C)CC[C@@H]43)C2)cc1 1.45
